Origin of measurements: BigSolDB 2.1

Details: in isobutanol, 308.15 K
property: solubility (mole fraction)

>>> recorded_number("O=C(O)COc1ccc(Cl)cc1")
0.0453

###

Settings: in isopropanol, 283.15 K
property: solubility (mole fraction)

>>> recorded_number("O=C(O)COc1ccc(Cl)cc1")
0.0214

###

Conditions: in 1,4-dioxane, 303.15 K
property: solubility (mole fraction)

>>> recorded_number("O=C(O)COc1ccc(Cl)cc1")
0.146

###

Settings: in ethyl formate, 283.15 K
property: solubility (mole fraction)

>>> recorded_number("O=C(O)COc1ccc(Cl)cc1")
0.0139

###

Settings: in acetonitrile, 308.15 K
property: solubility (mole fraction)

>>> recorded_number("O=C(O)COc1ccc(Cl)cc1")
0.0198
